Biological target: T1, recombinant human α5β1 integrin extracellular domains (human, UniProt P08648 1-995; P05556 1-728, Biotinylated on the Avitag (tag not in the letters); interchain disulfide between the coiled-coils (not in the letters).)
T1 construct: Soluble heterodimer co-expressed in Expi293 cells; also called hα5β1
Test: AlphaLISA blocking of human fibronectin binding
Outcome Measure: pIC50
In plain terms, pIC50 is the concentration in mol/L turned into minus its base-10 logarithm.

The value of pIC50 measured for the binder Ab-29 (antibody, V domains shown) VH: ELQLQESGPGLVKPSETLSLTCTVSGGSISSNSYYWGWIRQPPGKGLEWIGSIYYSGSTYYNPSLKSRVTISVDTSKNQFSLKLSSVTAADTAVYYCARVRRVAGRGDSYYYYYGMDVWGQGTTVTVSS VL: DIQMTQSPSSVSASVGDRVTITCRASQGISRWLAWYQQKPGKAPKLLIYAASSLQSGVPSRFSGSGSGTDFTLTISSLQPEDFATYYCQQAISHPWTFGGGTKVEIK turned out to be 8.02
